Biological target: FL-TDP1 (Homo sapiens)
Construct: either full-length TDP1 or Δ1-147TDP1 was diluted to 1×
Sequence (Q9NUW8 whole entry): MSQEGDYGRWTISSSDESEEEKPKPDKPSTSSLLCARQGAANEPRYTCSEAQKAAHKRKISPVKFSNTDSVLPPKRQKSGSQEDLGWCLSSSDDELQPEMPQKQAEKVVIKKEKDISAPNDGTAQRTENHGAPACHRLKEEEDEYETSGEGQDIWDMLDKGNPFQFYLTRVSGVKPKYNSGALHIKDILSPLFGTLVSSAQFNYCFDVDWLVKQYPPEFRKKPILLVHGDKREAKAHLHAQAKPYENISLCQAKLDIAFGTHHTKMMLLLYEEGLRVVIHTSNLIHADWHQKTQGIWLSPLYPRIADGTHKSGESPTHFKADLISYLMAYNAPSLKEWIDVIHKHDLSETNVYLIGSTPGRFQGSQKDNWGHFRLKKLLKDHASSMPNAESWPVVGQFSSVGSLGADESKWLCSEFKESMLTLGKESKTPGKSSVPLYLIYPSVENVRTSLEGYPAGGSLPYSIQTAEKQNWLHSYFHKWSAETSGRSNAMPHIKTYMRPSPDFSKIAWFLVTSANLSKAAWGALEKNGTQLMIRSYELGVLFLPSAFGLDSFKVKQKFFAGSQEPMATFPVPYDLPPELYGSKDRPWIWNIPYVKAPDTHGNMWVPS
Assay: FL-TDP1 FRET assay without TCEP (recifin A and analogues)
Type: biochemical
Conditions: IC50 μM (FL-TDP1 inhibitory activity), 1 nM FL-TDP1, 0.25 μM substrate, T=15 min, 1XPBS pH 7.4, 80 mM KCl, -TCEP, high-test concentration 20 μM
Bridge positions count the residues as written; N and C are the ends. Square brackets hold non-standard residues; d marks the D form. Ends that are not written are not given here. pGlu = O=C1CC[C@@H](C(=O)O)N1
Please go through the items and note down their IC50.
State the answer as a number, implicitly in µM.

Exercise: Could you tell me which IC50 is on file for [pGlu]EAFCYSDRFCQNYIGSIPDCCFGRGSYSFELQPPPWECYQC (disulfide 5-21, 11-39, 22-42) [recifin A] ?
Solution: 1.63

Exercise: Could you tell me which IC50 is on file for [pGlu]EAFCYSDRFCQNYIGSIPDCCFGRGSYSFELQPPPWECYQC-OH (disulfide 5-21, 11-39, 22-42) [Synthetic, Recifin] ?
Solution: 0.5

* * *

Target: full-length TDP1 (Homo sapiens, UniProt Q9NUW8)
Assay: FRET-based TDP1 enzymatic activity inhibition assay, full-length TDP1 (1x TDP1 buffer with TCEP)
Assay type: biochemical
Parameters: either full-length TDP1 or Δ1-147TDP1 was diluted to 1×
Bridge positions count the residues as written; N and C are the ends. Square brackets hold non-standard residues; d marks the D form. Ends that are not written are not given here. pGlu = O=C1CC[C@@H](C(=O)O)N1
Observation Type: pIC50
Quick note: pIC50 values are minus log10 of concentrations in mol/L.

Exercise: Could you tell me which pIC50 is on file for [pGlu]EAFCYSDRFCQNYIGSIPDCCFGRGSYSFELQPPPWECYQC (disulfide 5-21, 11-39, 22-42) [recifin A] ?
Solution: 6.72

* * *

Biological target: full-length TDP1 (Homo sapiens)
Assay: biochemical
Bridge positions count the residues as written; N and C are the ends. Square brackets hold non-standard residues; d marks the D form. Ends that are not written are not given here. pGlu = O=C1CC[C@@H](C(=O)O)N1
Observation Type: pIC50
Quick note: pIC50 values are minus log10 of concentrations in mol/L.

Exercise: Could you tell me which pIC50 is on file for [pGlu]EAFCYSDRFCQNYIGSIPDCCFGRGSYSFELQPPPWECYQC (disulfide 5-21, 11-39, 22-42) [recifin A] ?
Solution: 5.62

The origin of these recorded values is patent US20240002445A1.
